TARGET: HLA-A24.02
TEST_SUMMARY: Class I MHC peptide binding affinity (displacement of radiolabeled reference peptide)
Parameters: species or system human
RUN_PARAMETERS: allele A24.02; read-out: Observed Affinity (IC50; (nM))
Where a SMILES comes first, the peptide text is derived from it.
READOUT_KIND: IC50 (nM)
Use nM as the unit, but write only the number.

CSCC[C@H](NC(=O)[C@@H](N)CCCNC(=N)N)C(=O)N1CCC[C@H]1C(=O)N1CCC[C@H]1C(=O)N[C@@H](CS)C(=O)N[C@@H](CC(C)C)C(=O)N[C@@H](C)C(=O)N[C@@H](CC(N)=O)C(=O)N[C@@H](Cc1ccccc1)C(=O)O (H-RMPPCLANF-OH; N-terminus and C-terminus assumed) :: 8.7
CC[C@H](C)[C@H](NC(=O)[C@H](CO)NC(=O)[C@H](Cc1c[nH]c2ccccc12)NC(=O)[C@H](Cc1c[nH]cn1)NC(=O)[C@H](C)NC(=O)[C@@H]1CCCN1C(=O)[C@H](CCSC)NC(=O)[C@H](CC(C)C)NC(=O)[C@H](CO)NC(=O)[C@@H](N)CC(C)C)C(=O)O :: 12400

Given CSCC[C@H](NC(=O)[C@H](Cc1ccc(O)cc1)NC(=O)[C@@H](N)CCC(=O)O)C(=O)N[C@@H](C)C(=O)N[C@@H](CC(N)=O)C(=O)NCC(=O)N[C@@H](CO)C(=O)N[C@@H](CC(C)C)C(=O)N[C@@H](CC(C)C)C(=O)O (H-EYMANGSLL-OH; N-terminus and C-terminus assumed) , report its IC50 on HLA-A24.02. 5

Identify measured IC50 obtained with HLA-A24.02 for CC(C)C[C@H](NC(=O)[C@H](CC(C)C)NC(=O)[C@H](CCC(=O)O)NC(=O)[C@@H]1CCCN1C(=O)[C@H](Cc1ccccc1)NC(=O)[C@@H](N)CCCCN)C(=O)N[C@@H](CS)C(=O)N[C@H](C(=O)N[C@@H](Cc1c[nH]c2ccccc12)C(=O)O)C(C)C (H-KFPELLCVW-OH; N-terminus and C-terminus assumed) . 13.7

Enter measured IC50, system HLA-A24.02, for the compound shown: CC[C@H](C)[C@H](NC(=O)[C@H](Cc1ccc(O)cc1)NC(=O)[C@@H](N)CC(C)C)C(=O)N[C@H](C(=O)N[C@@H](C)C(=O)N[C@@H](Cc1ccccc1)C(=O)N[C@@H](Cc1ccccc1)C(=O)N[C@@H](CC(C)C)C(=O)N[C@@H](CC(C)C)C(=O)N[C@@H](CC(=O)O)C(=O)O)[C@@H](C)O (H-LYITAFFLLD-OH; N-terminus and C-terminus assumed) 0.4
